The following compounds are listed with their measured Adult severity score (10 μM) values.
- Test system: S. mansoni adults and somules
- experiment.summary: S. mansoni phenotypic assay, adults and somules (severity score)
- Assay type: cell-based, Schistosoma mansoni (NMRI isolate)
- test.parameters: adults, 3h, score 0-4
Could you respond with only the numeric value?

Please review the entries below; each comes with its answer.
Need Adult severity score (10 μM), item O=C1Nc2ccccc2C1=NNc1ccccc1 [NEU-2116, (Z)-3-(2-Phenylhydrazono)indolin-2-one]
0

Need Adult severity score (10 μM), item CN(C)S(=O)(=O)c1ccc(N/N=C2\C(=O)Nc3ccccc32)cc1
3

Need Adult severity score (10 μM), item COc1ccc(N/N=C2\C(=O)Nc3ccccc32)cc1
0

Need Adult severity score (10 μM), item CNS(=O)(=O)c1ccc(N/N=C2\C(=O)Nc3ccccc32)cc1
2

Further cases:
Need Adult severity score (10 μM), item CC(C)=Cc1cccc2c1C(=NNc1ccc(S(N)(=O)=O)cc1)C(=O)N2
2

Need Adult severity score (10 μM), item O=C1Nc2ccccc2/C1=N/Nc1cc(Cl)cc(Cl)c1
1

----------
- experiment.summary: Mouse pharmacokinetics, blood and brain levels after IP dose
- Assay type: in vivo
- test.parameters: female, NMRI, mouse, whole blood, ip, 10 mg/kg, blood, IP 10 mg/kg single dose, individual mice 001F-003F; read-out: tmax
property.name: Tmax (min)
Respond numerically; units are min and should not be typed.

Need Tmax, item CNS(=O)(=O)c1ccc(N/N=C2\C(=O)Nc3cccc(C=C(C)C)c32)cc1
15

----------
- experiment.summary: Mouse pharmacokinetics, blood and brain levels after IP dose
- Format: in vivo
- test.parameters: female, NMRI, mouse, whole blood, ip, 10 mg/kg, blood, IP 10 mg/kg, n = 3; read-out: tmax (mean row, range)
property.name: Tmax

Need Tmax, item CNS(=O)(=O)c1ccc(N/N=C2\C(=O)Nc3cccc(C=C(C)C)c32)cc1
15 to 30 min

----------
- experiment.summary: Aqueous pH 7.4 solubility
- Type: physicochemical
- test.parameters: pH 7.4 phosphate buffer, 25 °C, 20-24 h; read-out: Aq. Solubility
property.name: solubility (µM)
Respond numerically; units are µM and should not be typed.

Need solubility, item CNS(=O)(=O)c1ccc(N/N=C2\C(=O)Nc3cccc(C=C(C)C)c32)cc1
4

----------
- Tested on: MRC5-SV2 cell line
- experiment.summary: Cytotoxicity assay in MRC5 (resazurin, 48 h)
- Assay type: cell-based, human
- test.parameters: MRC5 toxicity
- Experimental: For dose-response experiments, compound plates were prepared for each analogue by serial 3-fold dilutions in 100% DMSO. Five concentration points (mammalian cytotoxicity) or ten concentration points (parasite growth inhibition), were made in 96-well transparent Nunclon plates. […] Fluorescence was read in an Infinite F200 plate reader (Tecan®) at 550 nm (excitation filter) and 590 nm (emission filter). […]
Marks after values point to notes of the source that are not given here.
property.name: MRC5 pTC50

Please review the entries below; each comes with its answer.
Need MRC5 pTC50, item CCc1cccc2c1/C(=N/Nc1ccc(S(N)(=O)=O)cc1)C(=O)N2 [NEU-5489]
<5.0^b

Need MRC5 pTC50, item CCc1ccc2c(c1)NC(=O)/C2=N\Nc1ccc(S(N)(=O)=O)cc1 [NEU-5470]
<5.0^b

Need MRC5 pTC50, item CC(C)c1cc2c(c(Cl)c1O)/C(=N/Nc1ccc(S(N)(=O)=O)cc1)C(=O)N2 [NEU-5455]
<5.0^b

Need MRC5 pTC50, item O=C1Nc2ccccc2C1=NNc1ccccc1 [NEU-2116, (Z)-3-(2-Phenylhydrazono)indolin-2-one]
<4.3

Need MRC5 pTC50, item CNS(=O)(=O)c1ccc(N/N=C2\C(=O)Nc3cccc(C=C(C)C)c32)cc1 [NEU-4391]
<4.3

Need MRC5 pTC50, item Cc1cc2c(c(Cl)c1O)/C(=N/Nc1ccc(S(N)(=O)=O)cc1)C(=O)N2 [NEU-5485]
<5.0^b

Need MRC5 pTC50, item CC(C)c1cccc2c1/C(=N/Nc1ccc(S(N)(=O)=O)cc1)C(=O)N2 [NEU-5491]
<5.0^b

Need MRC5 pTC50, item NS(=O)(=O)c1ccc(N/N=C2\C(=O)Nc3ccccc32)cc1 [NEU-2115]
<4.3

Kindly review the next compound as well.
Need MRC5 pTC50, item NS(=O)(=O)c1ccc(N/N=C2\C(=O)Nc3ccc(Cl)cc32)cc1 [NEU-2319]
<5.0^b

----------
- experiment.summary: Mouse pharmacokinetics, blood and brain levels after IP dose
- Assay type: in vivo
- test.parameters: female, NMRI, mouse, whole blood, ip, 10 mg/kg, blood, IP 10 mg/kg single dose, individual mice 001F-003F; read-out: AUC0-t
property.name: AUC0-t

Need AUC0-t, item CNS(=O)(=O)c1ccc(N/N=C2\C(=O)Nc3cccc(C=C(C)C)c32)cc1
39.3 ng·h/mL

----------
- Test system: S. mansoni adults and somules
- experiment.summary: S. mansoni phenotypic assay, adults and somules (severity score)
- Assay type: cell-based, Schistosoma mansoni (NMRI isolate)
- test.parameters: somules, 24h, score 0-4
property.name: Somule severity score (10 μM)
Could you respond with only the numeric value?

Need Somule severity score (10 μM), item CC(C)=Cc1cccc2c1C(=NNc1ccc(S(N)(=O)=O)cc1)C(=O)N2
1

Need Somule severity score (10 μM), item CNS(=O)(=O)c1ccc(N/N=C2\C(=O)Nc3ccccc32)cc1
1

Need Somule severity score (10 μM), item COc1ccc(N/N=C2\C(=O)Nc3ccccc32)cc1
2

Need Somule severity score (10 μM), item O=C1Nc2ccccc2C1=NNc1ccccc1 [NEU-2116, (Z)-3-(2-Phenylhydrazono)indolin-2-one]
0

Need Somule severity score (10 μM), item O=C1Nc2ccccc2/C1=N/Nc1cc(Cl)cc(Cl)c1
0

Kindly review the next compound as well.
Need Somule severity score (10 μM), item CN(C)S(=O)(=O)c1ccc(N/N=C2\C(=O)Nc3ccccc32)cc1
0

----------
- experiment.summary: Shake-flask octanol-water Log D7.4
- Format: physicochemical
- test.parameters: pH 7.4, octanol-water shake-flask
property.name: logD
Could you respond with only the numeric value?

Please review the entries below; each comes with its answer.
Need logD, item CN(C)S(=O)(=O)c1ccc(N/N=C2\C(=O)Nc3ccccc32)cc1
3.4

Need logD, item NS(=O)(=O)c1ccc(N/N=C2\C(=O)Nc3ccccc32)cc1
2.3

Kindly review the next compound as well.
Need logD, item CNS(=O)(=O)c1ccc(N/N=C2\C(=O)Nc3ccccc32)cc1
2.8

----------
- experiment.summary: Human liver microsomal CLint
- Assay type: in vitro ADME
- test.parameters: human, liver microsomes, read-out: HLM Clint
The following compounds are listed with their measured microsomal CLint values.
Respond numerically; units are µL/min/mg and should not be typed.

Please review the entries below; each comes with its answer.
Need microsomal CLint, item CNS(=O)(=O)c1ccc(N/N=C2\C(=O)Nc3cccc(C=C(C)C)c32)cc1
8.6

Need microsomal CLint, item CNS(=O)(=O)c1ccc(N/N=C2\C(=O)Nc3ccccc32)cc1
20.3

Need microsomal CLint, item NS(=O)(=O)c1ccc(N/N=C2\C(=O)Nc3ccccc32)cc1
20.4

Kindly review the next compound as well.
Need microsomal CLint, item CN(C)S(=O)(=O)c1ccc(N/N=C2\C(=O)Nc3ccccc32)cc1
38.2

----------
- System: S. mansoni adults and somules
- experiment.summary: S. mansoni phenotypic assay, adults and somules (severity score)
- Type: cell-based, Schistosoma mansoni (NMRI isolate)
- test.parameters: adults, 48h, score 0-4
- Description: Maintenance of the Schistosoma mansoni life cycle, preparation of somules (post-infective larvae) and adult worms (≥42-days-old), and co-incubation of these stages with test compounds were as described. An NMRI isolate of S. mansoni was used for all whole-organism screens. […]
property.name: Adult severity score (10 μM)
Could you respond with only the numeric value?

Please review the entries below; each comes with its answer.
Need Adult severity score (10 μM), item COc1ccc(N/N=C2\C(=O)Nc3ccccc32)cc1
0

Need Adult severity score (10 μM), item CNS(=O)(=O)c1ccc(N/N=C2\C(=O)Nc3ccccc32)cc1
2

Further cases:
Need Adult severity score (10 μM), item CC(C)=Cc1cccc2c1C(=NNc1ccc(S(N)(=O)=O)cc1)C(=O)N2
2

Need Adult severity score (10 μM), item CN(C)S(=O)(=O)c1ccc(N/N=C2\C(=O)Nc3ccccc32)cc1
3

Need Adult severity score (10 μM), item O=C1Nc2ccccc2C1=NNc1ccccc1 [NEU-2116, (Z)-3-(2-Phenylhydrazono)indolin-2-one]
1

Need Adult severity score (10 μM), item O=C1Nc2ccccc2/C1=N/Nc1cc(Cl)cc(Cl)c1
3

----------
The following compounds are listed with their measured MRC5 pTC50 values.
- System: MRC5-SV2 cell line
- experiment.summary: Cytotoxicity assay in MRC5 (resazurin, 48 h)
- Format: cell-based, human
- test.parameters: MRC5 toxicity
Marks after values point to notes of the source that are not given here.

Need MRC5 pTC50, item COc1ccc(N/N=C2\C(=O)Nc3ccccc32)cc1
<4.3

Further cases:
Need MRC5 pTC50, item Cc1cc2c(c(C)c1O)/C(=N/Nc1ccc(S(N)(=O)=O)cc1)C(=O)N2
<5.0^b

Need MRC5 pTC50, item CNS(=O)(=O)c1ccc(N/N=C2\C(=O)Nc3ccccc32)cc1
<4.3

Need MRC5 pTC50, item Cc1c(Cl)ccc2c1/C(=N/Nc1ccc(S(N)(=O)=O)cc1)C(=O)N2
<5.0^b
